# System: DU-145 prostate
# test_details: NCI-60 one-dose screen, 48 h (100 = growth as untreated, 0 = no growth, -100 = all killed)
# measurement_parameters: 10 µM unless noted
The panel holds about 83,000 compounds, 20% with a hit somewhere; the sample as a whole holds those more often.
// reported growth per item
Quick note: give the figure in %, leave out the unit.

C[C@H]1c2cccc(O)c2C(O)=C2C(=O)[C@]3(O)C(O)=C(C(N)=O)C(=O)[C@@H](N(C)C)[C@@H]3[C@@H](O)[C@@H]21 | 47.7
C[C@H]1O[C@@H](O[C@H]2[C@@H](O)C[C@H](O[C@H]3[C@@H](O)C[C@H](O[C@H]4CC[C@]5(C)C6C[C@@H](O)[C@]7(C)[C@@H](C8=CC(=O)OC8)CC[C@]7(O)C6CC[C@@H]5C4)O[C@@H]3C)O[C@@H]2C)C[C@H](O)[C@@H]1O (stereo partly drawn) | -100
COc1cccc(N2CCN(c3cccc(C)n3)CC2)c1 | 106
CC(C)=CCNc1ncnc2c1ncn2C1OC(COP(=O)(O)O)C(O)C1O (stereo not drawn) | 4.87
CNNc1ncnc2c1cnn2-c1ccc(S(N)(=O)=O)cc1 | 112
Nc1ccccc1C#Cc1ccccc1C#Cc1ccc(OCCCCCCOc2ccc(C#Cc3ccccc3C#Cc3ccccc3N)cc2)cc1 | 121
CCOc1nc(-c2ccco2)n2nc(-c3ccco3)cc2n1 | 118

Please supply the value of reported growth for the item O=c1ccn(C2CC=C(CO)O2)c(=O)[nH]1 (stereo not drawn) 108

Source listed as PubChem BioAssay (NCI).
